Data origin, for the record: patent US20150132746A1

Entries and their measured Measured concentration at day 30 follow.
assay: Long term stability of model analytes in dried oral fluid stored 30 days on alginate or chitosan foam; assay type: physicochemical, human; details: oral fluid on chitosan foam; theoretical 100 ng/ml; stored at room temperature; n = 3
Structures can show the parent of a compound that is named as a salt.
Just the number please, in ng/mL, no unit attached.

CN[C@@H](C)Cc1ccccc1 [Methamphetamine] = 98
CO[C@@]12CC[C@@]3(C[C@@H]1[C@](C)(O)C(C)(C)C)[C@H]1Cc4ccc(O)c5c4[C@@]3(CCN1CC1CC1)[C@H]2O5.Cl [Buprenorphine, buprenorphine hydrochloride] = 101
COc1ccc(CC(C)N)cc1 (centres unmarked) [PMA, para-methoxyamphetamine] = 104
CNC(C)Cc1ccc(OC)cc1 (centres unmarked) [PMMA, para-methoxymethamphetamine] = 104

Note: attention shifts to another entry.
Exam item: Which Measured concentration at day 30 is listed for CCC(=O)C(CC(C)N(C)C)(c1ccccc1)c1ccccc1 (centres unmarked) [Methadone, Methadone hydrochloride] ?
Marked response: 113

====

test: Long term stability of model analytes in dried oral fluid stored 30 days on alginate or chitosan foam; type: physicochemical, human; conditions: oral fluid on alginate foam; theoretical 100 ng/ml; stored at room temperature; n = 3
// NB: equality with 100 ng/mL counts as label 0; only Measured concentration at day 30 strictly below is label 1

Below are worked cases with known answers.
CNC(C)Cc1ccc(OC)cc1 (centres unmarked) [PMMA, para-methoxymethamphetamine] = label 0
COc1ccc(CC(C)N)cc1 (centres unmarked) [PMA, para-methoxyamphetamine] = label 1

Exam item: I wonder whether CN[C@@H](C)Cc1ccccc1 [Methamphetamine] has Measured concentration at day 30 below 100 ng/mL. Can you tell?
Marked response: label 1

====

assay: Long term stability of model analytes in dried oral fluid stored 30 days on alginate or chitosan foam; assay type: physicochemical, human; conditions: oral fluid on chitosan foam; theoretical 100 ng/ml; stored at 4 C; n = 3
Where a name gives a salt, the structure may show the parent alone.
OBSERVABLE: Measured concentration at day 30 (ng/mL)
Just the number please, in ng/mL, no unit attached.

# annotated cases, reported Measured concentration at day 30 shown
CCC(=O)C(CC(C)N(C)C)(c1ccccc1)c1ccccc1 (centres unmarked) [Methadone, Methadone hydrochloride] = 115
CNC(C)Cc1ccc(OC)cc1 (centres unmarked) = 123
CN[C@@H](C)Cc1ccccc1 = 126
COc1ccc(CC(C)N)cc1 (centres unmarked) = 127

Note: attention shifts to another entry.
Exam item: Which Measured concentration at day 30 is listed for CO[C@@]12CC[C@@]3(C[C@@H]1[C@](C)(O)C(C)(C)C)[C@H]1Cc4ccc(O)c5c4[C@@]3(CCN1CC1CC1)[C@H]2O5.Cl [Buprenorphine, buprenorphine hydrochloride] ?
Marked response: 105

====

Entries and their measured Measured concentration at day 30 follow.
test: Long term stability of model analytes in dried oral fluid stored 30 days on alginate or chitosan foam; type: physicochemical, human; details: oral fluid on alginate foam; theoretical 100 ng/ml; stored at 4 C; n = 3
Where a name gives a salt, the structure may show the parent alone.
Just the number please, in ng/mL, no unit attached.

# annotated cases, reported Measured concentration at day 30 shown
CO[C@@]12CC[C@@]3(C[C@@H]1[C@](C)(O)C(C)(C)C)[C@H]1Cc4ccc(O)c5c4[C@@]3(CCN1CC1CC1)[C@H]2O5.Cl [Buprenorphine, buprenorphine hydrochloride] = 101
CNC(C)Cc1ccc(OC)cc1 (centres unmarked) [PMMA, para-methoxymethamphetamine] = 114
CN[C@@H](C)Cc1ccccc1 [Methamphetamine] = 107
CCC(=O)C(CC(C)N(C)C)(c1ccccc1)c1ccccc1 (centres unmarked) [Methadone, Methadone hydrochloride] = 113

Exam item: Which Measured concentration at day 30 is listed for COc1ccc(CC(C)N)cc1 (centres unmarked) [PMA, para-methoxyamphetamine] ?
Marked response: 115
